- experimental.details: BSK_SAg_Proliferation: Cell Proliferation Assessment in the BioMAP Diversity Plus: SAg Assay (AID 2283095);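 also: relative cell number as total protein by SRB absorbance in sub-confluent culture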
- conditions: primary human HUVEC with PBMC
Active and inactive are the calls of the source. The calls were made as follows: active = hit-call score of the fitted dose curve at least 0.9, where 1 is the maximum; inactive = score below 0.9.
Answer with one of the outcomes active, inactive

Sample answers from the record:
# compound, class
rows = [
    ("CCN1CCC2(CC1)COc1cc3c(cc12)N(C(=O)c1ccc(-c2ccc(-c4nnc(C)o4)cc2C)cc1)CC3", "active"),
    ("ClC1(Cl)C2(Cl)C3(Cl)C4(Cl)C(Cl)(Cl)C5(Cl)C3(Cl)C1(Cl)C5(Cl)C24Cl (stereo unspecified)", "inactive"),
    ("CCOP(=S)(OCC)Oc1ccc(S(C)=O)cc1 (stereo unspecified)", "inactive"),
    ("O=C(O)C(Cl)(Cl)Cl", "inactive"),
    ("O=Cc1cccc(Oc2ccccc2)c1", "inactive"),
    ("CC(C)(C)c1cc(O)ccc1O", "active"),
]

Incoming: Recorded call for `Nc1ccc(-c2ccc(N)c(Cl)c2)cc1Cl` ?
Outgoing: inactive

Incoming: // param item: `C=C(C)C(=O)[O][Sn]([CH2]CCC)([CH2]CCC)[CH2]CCC` ; yields the recorded call
Outgoing: active

Incoming: GET /call?item= `CC(C)CCCCCCOC(=O)c1ccccc1C(=O)OCCCCCCC(C)C` returns the recorded outcome of this test.
Outgoing: inactive

Incoming: Status in this test for `CC(C)(OO)c1ccccc1` ?
Outgoing: inactive

Incoming: Could you check what this test reported for `NC(=O)O` ?
Outgoing: inactive

====

- experimental.details: ATG_Sox_CIS: Attagene CIS-FACTORIAL HepG2 Assay for human SRY-box transcription factor (SOX) (AID 2282960)
- conditions: HepG2 Attagene cis-factorial SOX reporter, mRNA; actives raise or lower the signal
Activity calls are given as the source filed them. How the source made its calls: active means hit-call score of the fitted dose curve at least 0.9, where 1 is the maximum; inactive means score below 0.9.
API: response.call in Y for active, N for inactive

Please review the entries below; each comes with its answer.
# molecule, class
rows = [
    ("Cc1ccccc1N", "N"),
    ("CNC", "N"),
    ("Cn1sc(Cl)cc1=O", "N"),
    ("CC(C)(C)c1cc(O)ccc1O", "Y"),
    ("CCCCCCCCSC(=O)Oc1cc(Cl)nnc1-c1ccccc1", "N"),
    ("CCOP(=S)(OCC)Oc1ccc(S(C)=O)cc1 (stereo not given)", "N"),
]

Incoming: Returns: the outcome recorded for `c1ccc(N=NNc2ccccc2)cc1` in this assay.
Outgoing: Y

Incoming: I'd appreciate the recorded outcome for `N#Cc1ccccn1` from this test.
Outgoing: N

Incoming: Tell me the recorded outcome of this test for `Nc1cccc(Cl)c1` .
Outgoing: N

Incoming: How did this test come out for `COc1cccc(C=O)c1` ?
Outgoing: N

Incoming: Just curious, what result did `CN(CCCC(=O)c1cccnc1)N=O` get here?
Outgoing: N

Incoming: # outcome recorded in this test, key = `CC(C)OC(=O)Nc1ccccc1`
Outgoing: N

Incoming: Could you kindly confirm the outcome this assay logged for `C1CCC(NC2CCCCC2)CC1` ?
Outgoing: N

Incoming: Test call, this molecule: `Cl/C=C\C[N+]12CN3CN(CN(C3)C1)C2`
Outgoing: N

Incoming: Name the outcome recorded for `COc1ccccc1OC` in the assay.
Outgoing: N

Incoming: Short answer needed: outcome of this test for `CC1(C)Cc2cccc(O)c2O1` ?
Outgoing: N

Incoming: Which result was noted for this molecule in the test: CCC1(c2ccc(N)cc2)CCC(=O)NC1=O (stereo not given)
Outgoing: N

Incoming: Write down the call the test reported for this molecule. Item: `CC(C)(OO)c1ccccc1`
Outgoing: N

Incoming: GET /call?item= `C=C(C)C#N` returns the recorded outcome of this test.
Outgoing: N

Incoming: Which result was noted for this molecule in the test: `Nc1ccc(Cl)cc1C(=O)c1ccccc1`
Outgoing: N

Incoming: // param item: `CCC[CH2][Sn]([CH2]CCC)([CH2]CCC)[O]C(=O)c1ccccc1` ; yields the recorded call
Outgoing: N

Incoming: Could you kindly confirm the outcome this assay logged for `CC(=[OH+])/C=C(/C)[O-].CC(=[OH+])/C=C(/C)[O-].CC(=[OH+])/C=C(/C)[O-].[Al]` ?
Outgoing: N
